- target under test: GMPPNP-loaded H-Ras or GTP-loaded K-Ras
- assay remarks: FP competition, displacement of probe R4007 from Ras
*1 amine or outer side, *2 acyl side, *3 side chain or, on linkers, in order; H or OH if unused. Bridges are numbered along the chain shown (N, C = ends). [ ]: non-standard residue; d: D form. Trp(7-aza) = N[C@@H](Cc1c[nH]c2ncccc12)C(=O)O; NMePhe(4-F) = CN[C@@H](Cc1ccc(F)cc1)C(=O)O; mXylylene = c1cc(C[*:1])cc(C[*:2])c1; Chg = N[C@H](C(=O)O)C1CCCCC1; Tle = CC(C)(C)[C@H](N)C(=O)O; NMeA = CN[C@@H](C)C(=O)O; Nva = CCC[C@H](N)C(=O)O; Sar = CNCC(=O)O
assay metric: pIC50
One number for each entry, as −log10 of the molar value.

Value of pIC50 reported for the binder Ac-[Nva]CY[Tle]KH[NMeA][Chg][Trp(7-aza)]Y[NMePhe(4-F)][Sar]C-NH2 (linker 2-13 via mXylylene; SMILES CCC[C@H](NC(C)=O)C(=O)N[C@H]1CSCc2cccc(c2)CSC[C@@H](C(N)=O)NC(=O)CN(C)C(=O)[C@H](Cc2ccc(F)cc2)N(C)C(=O)[C@H](Cc2ccc(O)cc2)NC(=O)[C@H](Cc2c[nH]c3ncccc23)NC(=O)[C@H](C2CCCCC2)NC(=O)[C@H](C)N(C)C(=O)[C@H](Cc2c[nH]cn2)NC(=O)[C@H](CCCCN)NC(=O)[C@H](C(C)(C)C)NC(=O)[C@H](Cc2ccc(O)cc2)NC1=O) [R4149] is 5.20

Hey, just so you know, these numbers are from patent US20190119358A1.
